Every entry's value here was drawn from PubChem BioAssay.

- measurementDescription: human hepatoma cell viability loss – ATP luminescence, cytotoxicity control for P. falciparum antimalarial project, primary screen (AID 2303);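 also: 0% = DMSO wells and 100% = digitonin-killed cells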
- experimentalContext: HepG2 viability, 24-48 h, at 10 µM
Calls of active or inactive are those of the source.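 The calls were made as follows: active = inhibition above 50%; inactive = the rest.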
Outcomes: active, inactive

1) C[C@H](Cc1ccc(Oc2ccc(C[C@@H](C)NC[C@H](O)c3cccc(Cl)c3)cc2)cc1)NC[C@H](O)c1cccc(Cl)c1    active
2) N#Cc1ccc(NC(=NCc2ccc(Cl)cc2Cl)Nc2cccc(Cl)c2Cl)c(O)c1    inactive
3) CC(C)Sc1nc(-c2ccccc2)nc2c1COC(C)(C)C2    inactive
4) COc1ccc(S(=O)(=O)N2CCC(NS(=O)(=O)c3ccc(F)cc3)CC2)cc1    inactive
5) Cc1ccc(-c2nc(Nc3ccncc3)c3ccccc3n2)s1    inactive
6) O[C@@H](c1cccc2ccccc12)[C@@H]1CN(CCc2ccccc2)CC[C@@]1(O)c1ccccc1    inactive
7) Cc1cccc2[nH]c(-c3cccc(-c4cccc(NC(=O)c5cccnc5Cl)c4)c3)nc12    inactive
8) Cc1nc(SCC(=O)N2CCCC2=O)c2c(C)c(C)sc2n1    inactive
9) Cc1ccc(NC(=O)Nc2ccc(Cl)c(C(F)(F)F)c2)cc1-c1ccc(C(=O)NCCN2CCOCC2)cc1    active
10) Cc1cccc2[nH]c(=O)c([N+](=O)[O-])c(O)c12    inactive

---

- measurementDescription: antimalarial activity against Dd2 strain (AID 2302);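 also: 0% = DMSO untreated growth and 100% = chloroquine plus artemisinin killed control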
- experimentalContext: P. falciparum Dd2 in RBCs, LDH growth readout, 72 h; at 2 µM; hits give high values
recordedEndpoint: growth inhibition (%)

1) O=C(NC1CCC(CCN2Cc3cccc(F)c3C2)CC1)c1cccc(-c2cccnc2)c1 (stereo unspecified)    82
2) Cc1cc(N2CCN(CC3CCN(C)CC3)CC2)nc(Nc2ccc(Br)cc2)n1    100
3) Nc1ncc(-c2ccc3nccc(-c4ccncc4)c3c2)cc1S(=O)(=O)N1CCOCC1    99
4) COC(=O)[C@@H](NC(=O)[C@H](CC(C)C)Nc1ccc(C#N)c2ccccc12)c1ccc(O)cc1    87
5) O=C(Nc1ccccc1Cl)c1cc2ccccc2cc1O    72
6) COc1ccc2c(NN=Cc3cccc(F)c3)ccnc2c1    95

---

- targetUnderTest: L-lactate dehydrogenase (Plasmodium falciparum (isolate CDC / Honduras)) (UniProt Q27743)
- Sequence (Q27743 whole entry, looked up): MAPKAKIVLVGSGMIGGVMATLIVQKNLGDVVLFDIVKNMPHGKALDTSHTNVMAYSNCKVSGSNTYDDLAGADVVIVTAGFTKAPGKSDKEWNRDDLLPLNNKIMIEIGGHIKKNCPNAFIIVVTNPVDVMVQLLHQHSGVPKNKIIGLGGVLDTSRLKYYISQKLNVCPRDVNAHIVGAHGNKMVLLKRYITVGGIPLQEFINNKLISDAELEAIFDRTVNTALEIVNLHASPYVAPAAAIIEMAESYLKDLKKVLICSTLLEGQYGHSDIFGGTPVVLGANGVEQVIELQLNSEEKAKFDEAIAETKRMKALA
- measurementDescription: PfLDH activity inhibition – cell lysate, 3D7 strain, counter-screen for P. falciparum growth inhibition project (AID 2304);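 also: 0% = vehicle and 100% = reference inhibitor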
- experimentalContext: P. falciparum 3D7 crude extract, LDH APAD/NBT absorbance; at 2 µM; hits give high values
Active and inactive are the calls of the source. The rule behind the calls is not given here.
recordedEndpoint: inhibition

1) Cc1cc(Nc2ncc3c(n2)N(C2CCC2)CC3)ccc1N1CCN(C)CC1    -2% (inactive)
2) O=C(NCc1cccc(F)c1)Nc1ccc(-c2cccc(-c3nc4ccc(F)cc4[nH]3)c2)cc1    7% (inactive)
3) O=C1C2=C(Nc3ccccc3SC2c2ccccc2)c2ccccc21 (stereo not given)    -7% (inactive)
4) N#Cc1ccc(Sc2nnc(-c3ccccc3Cl)n2CC2CCCCC2)cc1[N+](=O)[O-]    1% (inactive)
5) COc1cc2nccc(Nc3cc(C)cc(O)c3)c2cc1OC    0% (inactive)
6) Cc1ccc(-c2nnc3c4ccccc4c(C)nn23)cc1S(=O)(=O)N1CCN(CCO)CC1    -4% (inactive)
7) O=C(Nc1ccc(Cl)cc1)Nc1ccc(OCC(O)CN2CCCCC2)cc1 (stereo not given)    -1% (inactive)
8) O=C(Nc1cccc(-c2ccc(CN3CCC(O)CC3)cc2)c1)c1cccc(Cl)c1    -11% (inactive)
9) O=C(Nc1ccc2c(c1)CCN(C1CCC1)CC2)c1ccc(-n2ccnc2)cn1    0% (inactive)
10) Cc1cc(NC(=O)Nc2cccc(N(C)C)c2)c2ccccc2n1    4% (inactive)

---

- measurementDescription: inhibition of 3D7 malaria parasite growth – strain 3D7 (AID 2306);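 also: 0% = DMSO wells and 100% = chloroquine plus artemisinin control wells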
- experimentalContext: P. falciparum 3D7 erythrocytic growth, LDH absorbance, 72 h; at 2 µM; hits give high values
The following compounds are shown together with reported growth inhibition values.
recordedEndpoint: growth inhibition (%)

1. CNC(=O)c1ccccc1Nc1nc(Nc2cccnc2)ncc1C    93
2. Cc1ccccc1CNc1noc(-c2c(F)cccc2Cl)n1    97
3. Cc1cc(F)ccc1-c1nc(NCCCNCCc2ccccc2)nc2c1ccc(=O)n2-c1c(F)cccc1F    100
4. Cn1ncc2c3c(CCN4CCC(NCc5cc6c(cn5)OCC6)CC4)c(Cl)cnc3ccc21    94
5. COC(=O)c1ccc2[nH]cc(C3CCN(CCC4CCN(C(=O)/C=C/c5ccc(Cl)c(Cl)c5)CC4)CC3)c2c1    97
6. Cc1cc2nc(-c3ccc(/C=C/C(=O)NC4CCN(Cc5ccccc5)CC4)cc3)[nH]c2cc1C    98
7. O=C(NCC(NCCCNc1cc(=O)c2ccccc2[nH]1)c1cc(Br)cc(Br)c1)C1=CCCC1 (stereo not given)    96
8. CNC(=O)c1cnc(Nc2ccc(N3CCN(C)CC3)c(C)c2)nc1NC    97
9. C#C[C@H]1O[C@@H](n2cnc3c(Nc4cc(Br)cc(C(F)(F)F)c4)ncnc32)[C@H](O)[C@@H]1O    94
10. CC(C)NCC(O)Cn1c2ccc(Br)cc2c2cc(Br)ccc21 (stereo not given)    99

---

- measurementDescription: inhibition of 3D7 malaria parasite growth – strain 3D7 (AID 2306);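 also: 0% = DMSO wells and 100% = chloroquine plus artemisinin control wells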
- experimentalContext: P. falciparum 3D7 erythrocytic growth, LDH absorbance, 72 h; at 2 µM; hits give high values
Activity calls are given as the source filed them. No rule for the calls is given here.
recordedEndpoint: growth inhibition

1. CC(C)(C)S[C@H]1S[C@H](SC(C)(C)C)[C@@H](OC(=O)c2ccccc2)C(OC(=O)c2ccccc2)[C@H]1OC(=O)c1ccccc1 (some centres undefined)    95% (active)
2. O=S(=O)(c1cc(Cl)c(Cl)cc1Cl)N1CCCCC(c2ccc(C(F)(F)F)cc2)=N1    98% (active)
3. CN(C)CCNCc1cccc(-c2ccc3c(Nc4cc(O)c(Cl)cc4F)ccnc3c2)c1    99% (active)
4. CC(C)C1=CC(=NOS(=O)(=O)c2ccccc2)C=C(C(C)C)C1=O    92% (active)
5. COc1ccc(CNC2CCN(C)CC2)cc1-c1ccc(S(=O)(=O)NCCc2ccccn2)c(F)c1    101% (active)
6. CC1CCN(Cc2ccc(NC(=O)c3cc4ccc5cccnc5c4[nH]3)cc2)CC1    101% (active)
7. NC(N)=Nc1ccc(Cc2ccc(N=C(N)N)cc2)cc1    93% (active)
8. CCOC(=O)N[C@@H]1CN[C@@H](C#Cc2cc3c(Nc4ccc(OCc5cccc(F)c5)c(Cl)c4)ncnc3s2)C1    86% (active)
9. Nc1cccc(CNCc2ccc(-c3ccc(-c4nc5ccccc5[nH]4)s3)cc2)c1    100% (active)

---

- measurementDescription: human hepatoma cell viability loss – ATP luminescence, cytotoxicity control for P. falciparum antimalarial project, primary screen (AID 2303);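 also: 0% = DMSO wells and 100% = digitonin-killed cells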
- experimentalContext: HepG2 viability, 24-48 h, at 10 µM
Activity calls are given as the source filed them.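 The calls were made as follows: active = inhibition above 50%; inactive = the rest.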
Outcome codes: t = active, f = inactive

1. CCOc1cc2c(cc1OCC)C(c1cc(OC)c(O)cc1Cl)NCC2 (stereo not given)    f
2. CC(C)[C@@H](C(=O)NCc1cccc(C(F)(F)F)c1)N1C(=O)CCC1C(=O)Nc1ccc([N+](=O)[O-])cc1 (stereo not given in full)    f
3. CCCc1cc(Cc2cnc(N)nc2N)cc(CCC)c1OCCCCCC(=O)OCC    f
4. Cc1cc(C)n(Cc2ccc(C(=O)NCC3CCCCC3)cc2)n1    f
5. O=C(NCCCCN1CCC(c2ccc3c(c2OCc2ccncc2)CCCC3)CC1)c1ccc(NC(=O)c2ccc(Cl)cc2)cc1    t
6. Cc1cc(NC(=O)Nc2cccc(N(C)C)c2)c2ccccc2n1    f
7. COc1cc(SC)c(Br)cc1-c1nc2ccncc2[nH]1    f
8. Nc1nc(N)c2c(ccc3c2ccn3Cc2cccc3ccccc23)n1    t
9. C[C@@H](Oc1cc(-n2cnc3ccc(NC(=O)CCN4CCCCC4)cc32)sc1C(N)=O)c1ccccc1Cl    f
10. Cn1c(=O)n(C)c2cc(CNCCNc3ccnc4cc(Cl)ccc34)ccc21    f

---

- measurementDescription: inhibition of 3D7 malaria parasite growth – strain 3D7 (AID 2306);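 also: 0% = DMSO wells and 100% = chloroquine plus artemisinin control wells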
- experimentalContext: P. falciparum 3D7 erythrocytic growth, LDH absorbance, 72 h; at 2 µM; hits give high values
The entries below are paired with their reported growth inhibition.
recordedEndpoint: growth inhibition (%)

1) CN(Cc1cccc(C#N)c1)C1CCN(c2cc(NC(=O)c3cccc(F)c3)ccn2)CC1    98
2) CN1CCCN(Cc2ccc(-c3ccc(NS(=O)(=O)c4cccc5cccnc45)cc3)cc2)CC1    99
3) CN(C)c1cc(C(=O)N[C@@H](Cc2ccccc2)[C@H](O)CNC2CCCCC2)cc2[nH]ccc12    98
4) Cc1cc(-c2ccc(NC(=O)Nc3ccc4nccc(N5CCN(C)CC5)c4c3)cc2C)cc(C)n1    100
5) COc1ccc(C(=O)N[C@@H](CC(C)C)C(=O)N[C@H](/C=N/NC(=O)c2ccccc2)CCc2ccccc2)cc1OCCN1CCOCC1    96
6) CC(C)(C)c1ccc(CNCC(C)(C)c2nc(-c3ccc(Cl)c(O)c3)c(-c3ccnc(N)n3)[nH]2)cc1    100
7) CCN(CC)CCN(Cc1ccc(-c2ccc(C(F)(F)F)cc2)cc1)C(=O)Cn1c(CCc2cc(F)c(F)c(F)c2)nc(=O)c2ccccc21    101
8) Cc1cnc(C(=O)Nc2ccc3c(c2)CCCN(Cc2c[nH]c4cnccc24)C3)cn1    92
9) COc1cccc2c(NN=Cc3cccc(Cl)c3)ccnc12    101
10) CCOC(=O)NC1=NC(C)(C)N(OCc2ccc(Cl)c(Cl)c2)C(N)=N1    96
11) COc1ccc(CNCC2CCC(CNCCc3ccccc3)CC2)cc1Cl (stereo not drawn)    100
12) CCN(CC)CCN(Cc1ccc(-c2ccc(C(F)(F)F)cc2)cc1)C(=O)Cn1c(CCc2cccc(F)c2F)cc(=O)cc1-c1ccccc1    94
13) O=C(Nc1cccc(-c2ccc(-c3nc4ccccc4[nH]3)cc2)c1)c1cnn2cccnc12    87
14) Cc1ccc2cc(NC(=O)c3cccc(C(=O)Nc4ccc5nc(C)ccc5c4)n3)ccc2n1    92
15) Cc1ccc(OCCCON2C(N)=NC(N)=NC2(C)C)cc1C    96
16) O=C(Nc1cccc(-c2nn3ccccc3c2-c2ccnc(Nc3cccc(C(F)(F)F)c3)n2)c1)c1c(F)cccc1F    97
17) O=S(=O)(Nc1cc2c(cc1O)CCN(C1CCC1)CC2)c1ccc(-c2ccc(F)cc2)cc1    101
18) CCCc1cc(OC)c(CC2c3cc(O)c(Cl)cc3CCN2C)cc1OC (stereo not drawn)    100
